Target Or Test System: Human pol κ (residues 19–526) (Homo sapiens, UniProt Q9UBT6)
Construct: Human pol κ (residues 19–526) was purified as previously reported; made in house
Sequence (Q9UBT6 19-526): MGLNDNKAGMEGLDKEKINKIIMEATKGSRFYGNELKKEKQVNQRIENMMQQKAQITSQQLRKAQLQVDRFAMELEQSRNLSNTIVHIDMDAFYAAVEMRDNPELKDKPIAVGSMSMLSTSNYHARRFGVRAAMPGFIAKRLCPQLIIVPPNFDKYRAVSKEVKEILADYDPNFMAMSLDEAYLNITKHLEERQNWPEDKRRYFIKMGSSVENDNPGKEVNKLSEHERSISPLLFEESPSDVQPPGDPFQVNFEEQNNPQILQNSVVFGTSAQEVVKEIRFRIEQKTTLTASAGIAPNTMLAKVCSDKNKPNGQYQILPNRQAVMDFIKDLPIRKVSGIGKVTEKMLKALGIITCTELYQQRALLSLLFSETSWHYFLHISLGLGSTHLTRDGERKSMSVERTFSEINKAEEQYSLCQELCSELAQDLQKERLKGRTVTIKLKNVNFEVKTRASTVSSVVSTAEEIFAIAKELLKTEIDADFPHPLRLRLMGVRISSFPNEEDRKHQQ
Protocol Description: qHTS fluorescence-based DNA strand displacement assay
Type: biochemical
Description: The substrate used in qHTS was made by the annealing of unlabeled oligodeoxynucleotide primer (5′-TCACCCTCGTACGACTC-3′) and TAMRA-labeled reporter strand (5′-TTTTTTTTTTGC-6-TAMRA-3′) to oligodeoxynucleotide template labeled with BHQ-2 (5′-BHQ-2-[…]-3′) as originally described by Dorjsuren et al.. […]
Assay Metric: IC50 (µM)
Give the quantity in µM, number only.

What value of IC50 has been recorded for this entry: CC1=C(CC/C(C)=C/CCC2=CC[C@H](C3=CC(=O)O[C@H]3O)O[C@H]2O)C(C)(C)CCC1 [manoalide]
9.5

###

Target Or Test System: Human pol κ (Homo sapiens, UniProt Q9UBT6)
Construct: Human pol κ (residues 19–526) was purified as previously reported; made in house
Protocol Description: Radioactive gel-based primer extension assay on non-damaged DNA, pol κ
Format: biochemical
Assay Metric: pIC50
Scale: pIC50 equals -log10([C]), with [C] in mol/L.

What value of pIC50 has been recorded for this entry: CC1=C(CC/C(C)=C/CCC2=CC[C@H](C3=CC(=O)O[C@H]3O)O[C@H]2O)C(C)(C)CCC1 [manoalide]
5.47

###

Target Or Test System: Human pol κ (Homo sapiens)
Construct: Human pol κ (residues 19–526) was purified as previously reported; made in house
Protocol Description: Radioactive gel-based primer extension (TLS) past acrolein-derived ring-opened reduced form of γ-HOPdG, pol κ
Type: biochemical
Protocol: The reactions with pol κ, pol η, and pol ι were carried out in the buffers containing 25 mM Tris-HCl, pH 7.5, 8 mM MgCl2, 10% glycerol, 100 µg/mL bovine serum albumin, and 5 mM DTT. […] The ratio of extended primer to the total amount of primer was measured using ImageQuant 5.2 software to calculate the percentage of primer extended. IC50 values were determined by fitting the data to variable slope four-parameter equations using GraphPad Prism 5. […]
Assay Metric: IC50
Provide a numeric answer, followed by its unit.

What value of IC50 has been recorded for this entry: CC1=C(CC/C(C)=C/CCC2=CC[C@H](C3=CC(=O)O[C@H]3O)O[C@H]2O)C(C)(C)CCC1 [manoalide]
5.6 µM

###

Target chain: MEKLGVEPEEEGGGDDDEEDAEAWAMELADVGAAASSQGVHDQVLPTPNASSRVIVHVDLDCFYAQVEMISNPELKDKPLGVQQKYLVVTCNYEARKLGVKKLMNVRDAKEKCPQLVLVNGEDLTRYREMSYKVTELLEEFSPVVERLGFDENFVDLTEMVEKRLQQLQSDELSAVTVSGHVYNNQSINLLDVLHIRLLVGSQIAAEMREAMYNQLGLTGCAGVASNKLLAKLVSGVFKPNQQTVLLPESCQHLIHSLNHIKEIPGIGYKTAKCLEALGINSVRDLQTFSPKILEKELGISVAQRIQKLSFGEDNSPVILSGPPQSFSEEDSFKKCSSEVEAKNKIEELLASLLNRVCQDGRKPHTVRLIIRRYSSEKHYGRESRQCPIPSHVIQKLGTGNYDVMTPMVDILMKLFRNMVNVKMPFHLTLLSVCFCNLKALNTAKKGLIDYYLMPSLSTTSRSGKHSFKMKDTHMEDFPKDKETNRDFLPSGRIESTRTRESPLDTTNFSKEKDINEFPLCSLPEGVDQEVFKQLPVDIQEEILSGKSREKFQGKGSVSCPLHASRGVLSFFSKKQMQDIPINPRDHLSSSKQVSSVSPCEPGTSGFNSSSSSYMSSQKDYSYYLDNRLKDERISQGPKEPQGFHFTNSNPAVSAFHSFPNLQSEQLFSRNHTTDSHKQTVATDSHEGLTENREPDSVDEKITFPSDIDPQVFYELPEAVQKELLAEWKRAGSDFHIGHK
Assay Metric: pIC50
Scale: pIC50 equals -log10([C]), with [C] in mol/L.

What value of pIC50 has been recorded for this entry: CCOc1nc2cccc(C(=O)OC(C)OC(=O)OC3CCCCC3)c2n1Cc1ccc(-c2ccccc2-c2nnn[nH]2)cc1 (stereo not shown)
5.21

###

Target Or Test System: Human pol η (residues 1–437) (Homo sapiens, UniProt Q9Y253)
Construct: Human pol η (residues1–437) was purified following the same procedures; made in house
Sequence (Q9Y253 1-437): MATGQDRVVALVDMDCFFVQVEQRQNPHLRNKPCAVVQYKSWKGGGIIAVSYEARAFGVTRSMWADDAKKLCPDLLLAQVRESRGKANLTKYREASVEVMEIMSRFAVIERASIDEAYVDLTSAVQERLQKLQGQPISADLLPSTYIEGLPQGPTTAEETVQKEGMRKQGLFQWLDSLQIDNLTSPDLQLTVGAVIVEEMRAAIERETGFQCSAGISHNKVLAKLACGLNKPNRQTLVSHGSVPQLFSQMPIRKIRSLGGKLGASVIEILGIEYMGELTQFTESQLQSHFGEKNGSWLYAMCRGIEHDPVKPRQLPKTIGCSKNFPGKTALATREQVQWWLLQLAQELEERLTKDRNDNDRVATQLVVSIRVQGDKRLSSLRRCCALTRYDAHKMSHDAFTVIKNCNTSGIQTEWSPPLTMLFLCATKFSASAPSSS
Protocol Description: Radioactive gel-based primer extension assay on non-damaged DNA, pol η
Format: biochemical
Conditions Used: average ± standard error, three experiments
Assay Metric: pIC50
Scale: pIC50 equals -log10([C]), with [C] in mol/L.

What value of pIC50 has been recorded for this entry: CCOc1nc2cccc(C(=O)OC(C)OC(=O)OC3CCCCC3)c2n1Cc1ccc(-c2ccccc2-c2nnn[nH]2)cc1 (stereo not shown)
4.95

// provenance: paper PMC3466269
